# targetEntity: UniProtKB Q9YQ12
# assayNotes: Inhibition of HIV1 recombinant protease expressed in Escherichia coli
pKi: −log10 of the molar value.
resultType: pKi

>>> reportedvalue("O=[N+]([O-])c1ccc(S(=O)(=O)N(Cc2ccccc2)[C@H]2CNC[C@@H]2N(Cc2ccccc2)S(=O)(=O)c2ccc([N+](=O)[O-])cc2)cc1")
5.76
>>> reportedvalue("O=S(=O)(c1ccccc1)N(Cc1ccc(C(F)(F)F)cc1)[C@H]1CNC[C@@H]1N(Cc1ccc(C(F)(F)F)cc1)S(=O)(=O)c1ccccc1")
6.10
>>> reportedvalue("CC(C)=CCN([C@H]1CNC[C@@H]1N(CC=C(C)C)S(=O)(=O)c1ccccc1)S(=O)(=O)c1ccccc1")
5.80
>>> reportedvalue("O=S(=O)(c1ccccc1)N(Cc1ccc(Br)cc1)[C@H]1CNC[C@@H]1N(Cc1ccc(Br)cc1)S(=O)(=O)c1ccccc1")
6.34

----------
# targetEntity: Protease (Human immunodeficiency virus 1, UniProt Q9YQ12)
# Sequence (Q9YQ12 whole entry): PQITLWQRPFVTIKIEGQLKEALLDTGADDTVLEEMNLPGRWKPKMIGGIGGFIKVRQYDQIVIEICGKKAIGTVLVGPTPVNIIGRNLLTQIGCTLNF
# assayNotes: Inhibition of HIV1 recombinant protease expressed in Escherichia coli
pKi: −log10 of the molar value.
resultType: pKi

>>> reportedvalue("C=CCN([C@H]1CNC[C@@H]1N(CC=C)S(=O)(=O)c1ccccc1)S(=O)(=O)c1ccccc1")
4.91
>>> reportedvalue("C=C(C)CN([C@H]1CNC[C@@H]1N(CC(=C)C)S(=O)(=O)c1ccccc1)S(=O)(=O)c1ccccc1")
4.13
>>> reportedvalue("Cc1ccccc1S(=O)(=O)N(Cc1ccccc1)[C@H]1CNC[C@@H]1N(Cc1ccccc1)S(=O)(=O)c1ccccc1C")
6.17
